- Test system: OVCAR-3 ovarian
- protocol_notes: NCI tumour cell line growth inhibition, 48 h
Readings of TGI for the listed molecules

These recorded examples may help you get a feel for the data.
- molecule: "CC1SC(c2ccccc2)N(CCc2cccs2)C1=O (centres undefined)"
  subject_of_test: "OVCAR-3 ovarian"
  TGI: "13.3 µM"
- molecule: "O=C(CCCCCCC(=O)Nc1ccc(N(CCCl)CCCl)cc1)NO"
  subject_of_test: "OVCAR-3 ovarian"
  TGI: "6.66 µM"
- molecule: "O=C1C(Br)=CC2(C=C1Br)CCNC1=C2C(=O)c2ccccc2C1=O"
  subject_of_test: "OVCAR-3 ovarian"
  TGI: "> 100 µM"

Alright, here's another molecule for you.
Challenge: Any idea what TGI came out for CC[C@@H](C(=O)O)C1CC[C@H](C)C([C@@H](C)[C@H](O)[C@H](C)C(=O)[C@H](CC)C2O[C@]3(C=C[C@@H](O)[C@]4(CC[C@@](C)(C5CC[C@](O)(CC)[C@H](C)O5)O4)O3)[C@H](C)C[C@@H]2C)O1 (some centres undefined) on OVCAR-3 ovarian?
Response given: 16.4 µM

* * *

- Tested on: SF-539 CNS
- protocol_notes: NCI tumour cell line growth inhibition, 48 h; in the data active means GI50 below about 0.43 µM; inactive means the rest
Write down the outcome that applies. Available outcomes: active, inactive

- query_smiles: "O=C1/C(=C\\c2c[nH]c3ccccc23)c2ccccc2N1c1c(Cl)cccc1Cl"
  class_label: "inactive"
- query_smiles: "COC(=O)[C@@]1(C)CC[C@]2(C)CC[C@]3(C)C4=CC=C5C(=CC(=O)C(O)=C5C)[C@]4(C)[C@@H](O)C[C@@]3(C)[C@@H]2C1"
  class_label: "inactive"
- query_smiles: "C=CCOc1cccc(/C=C2\\SC(=Nc3ccc(O)cc3)NC2=O)c1"
  class_label: "active"
- query_smiles: "Cc1ccc(-c2cn3ccnc3c(-c3ccc(Cl)cc3)n2)cc1"
  class_label: "active"
- query_smiles: "COc1ccc(-c2csc(N(C(=O)N3CCN(c4cc5c(cc4F)c(=O)c(C(=O)O)cn5C4CC4)CC3)c3ccccc3)n2)cc1"
  class_label: "inactive"
- query_smiles: "COc1ccc(-c2ccc(/C=N/n3c(COc4ccc(Cl)cc4Cl)nn(CN4CCOCC4)c3=S)o2)c([N+](=O)[O-])c1"
  class_label: "inactive"
- query_smiles: "COc1cccc(-n2ncc3c(N/N=C/c4ccc(C(=O)NCCN(C)C)cc4)ncnc32)c1"
  class_label: "inactive"
- query_smiles: "C1C[OH+]CC[OH+]CCNCC[OH+]CC[OH+]CCN1.N.[Cl-].[Pt+4]"
  class_label: "inactive"

Challenge: So what was the verdict on `COc1ccc(-c2nc3sc4c(c3c(=O)[nH]2)CCCCCC4)cc1` in this test?
Response given: inactive

Challenge: Let us now turn to `O=c1cc(-c2ccccc2)[nH]c2ccccc12`
Response given: active

Challenge: Let us now turn to `CCc1nccc2c1nc(-c1nonc1N)n2CC`
Response given: inactive

* * *

- System: HS 578T breast
- protocol_notes: NCI tumour cell line growth inhibition, 48 h
quantity_measured: TGI

- compound: "COc1cc2c(c(OC)c1)C1c3ccccc3NC(=O)N1CC2 (stereo unspecified)"
  TGI: "> 100 µM"
- compound: "O=CC(=C(I)I)c1ccccc1"
  TGI: "12.6 µM"
- compound: "CN(C)CCCNC(CC#N)CCC#N (stereo unspecified)"
  TGI: "> 10 µM"

Challenge: Quick one: TGI for `NCCOCCOCCNc1nc(Cc2ccccc2)nc(NCCCN2CCCC2=O)n1` ?
Response given: > 100 µM

Challenge: Let us now turn to COc1ccc(/C=C2\C(=O)N(C3OC(COC(C)=O)C(OC(C)=O)C(OC(C)=O)C3OC(C)=O)c3ccccc3N=C2N)cc1 (stereo unspecified)
Response given: > 100 µM

Challenge: Let us now turn to `COc1ccc2c(C)cc(N/N=C(\C)C=O)nc2c1`
Response given: 43.3 µM
